meta.source: BigSolDB 2.1

settings: in water, 313.15 K
quantity: solubility (mole fraction)
Keep the answer to the number alone.

Request: Given `O=C(Cn1cnnn1)N[C@@H]1C(=O)N2C(C(=O)O)=C(CSc3nncs3)CS[C@H]12` , state its recorded solubility (mole fraction).
Result: 5.32e-05

* * *

details: in acetone, 308.15 K
quantity: solubility (mole fraction)
Keep the answer to the number alone.

Request: Given `O=C(Cn1cnnn1)N[C@@H]1C(=O)N2C(C(=O)O)=C(CSc3nncs3)CS[C@H]12` , state its recorded solubility (mole fraction).
Result: 0.00193

* * *

settings: in acetonitrile, 288.15 K
quantity: solubility (mole fraction)

Request: Given `O=C(Cn1cnnn1)N[C@@H]1C(=O)N2C(C(=O)O)=C(CSc3nncs3)CS[C@H]12` , state its recorded solubility (mole fraction).
Result: 0.000159

* * *

conditions: in ethanol, 313.15 K
quantity: solubility (mole fraction)
Keep the answer to the number alone.

Request: Given `O=C(Cn1cnnn1)N[C@@H]1C(=O)N2C(C(=O)O)=C(CSc3nncs3)CS[C@H]12` , state its recorded solubility (mole fraction).
Result: 0.000152

* * *

conditions: in methanol, 288.15 K
quantity: solubility (mole fraction)
Keep the answer to the number alone.

Request: Given `O=C(Cn1cnnn1)N[C@@H]1C(=O)N2C(C(=O)O)=C(CSc3nncs3)CS[C@H]12` , state its recorded solubility (mole fraction).
Result: 1.92e-05

* * *

conditions: in isopropanol, 293.15 K
quantity: solubility (mole fraction)
Keep the answer to the number alone.

Request: Given `O=C(Cn1cnnn1)N[C@@H]1C(=O)N2C(C(=O)O)=C(CSc3nncs3)CS[C@H]12` , state its recorded solubility (mole fraction).
Result: 8.59e-05

* * *

conditions: in ethanol, 308.15 K
quantity: solubility (mole fraction)
Keep the answer to the number alone.

Request: Given `O=C(Cn1cnnn1)N[C@@H]1C(=O)N2C(C(=O)O)=C(CSc3nncs3)CS[C@H]12` , state its recorded solubility (mole fraction).
Result: 0.000122

* * *

conditions: in isopropanol, 308.15 K
quantity: solubility (mole fraction)

Request: Given `O=C(Cn1cnnn1)N[C@@H]1C(=O)N2C(C(=O)O)=C(CSc3nncs3)CS[C@H]12` , state its recorded solubility (mole fraction).
Result: 0.000134

* * *

settings: in water, 288.15 K
quantity: solubility (mole fraction)
Keep the answer to the number alone.

Request: Given `O=C(Cn1cnnn1)N[C@@H]1C(=O)N2C(C(=O)O)=C(CSc3nncs3)CS[C@H]12` , state its recorded solubility (mole fraction).
Result: 1.64e-05

* * *

details: in ethanol, 278.15 K
quantity: solubility (mole fraction)
Keep the answer to the number alone.

Request: Given `O=C(Cn1cnnn1)N[C@@H]1C(=O)N2C(C(=O)O)=C(CSc3nncs3)CS[C@H]12` , state its recorded solubility (mole fraction).
Result: 4.85e-05

* * *

settings: in water, 303.15 K
quantity: solubility (mole fraction)

Request: Given `O=C(Cn1cnnn1)N[C@@H]1C(=O)N2C(C(=O)O)=C(CSc3nncs3)CS[C@H]12` , state its recorded solubility (mole fraction).
Result: 3.24e-05

* * *

conditions: in methanol, 283.15 K
quantity: solubility (mole fraction)
Keep the answer to the number alone.

Request: Given `O=C(Cn1cnnn1)N[C@@H]1C(=O)N2C(C(=O)O)=C(CSc3nncs3)CS[C@H]12` , state its recorded solubility (mole fraction).
Result: 1.5e-05
